biological target: Short transient receptor potential channel 4 (Mus musculus); assay: calcium flux activators in TRPC4/5HT1a cells, counter-screen for TRPC4 activator project, cell-based, second counter screen, HEK293 TRPC4/5HT1a, Fluo-4 (AID 434977); conditions: Fluo-4 calcium flux, at 10 µM
Calls of active or inactive are those of the source.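 The calls were made as follows: active = calcium signal rise above buffer-control mean plus 5 SD in both duplicates, and also a hit in the primary screen; inactive = the rest.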
Please reply with one of these outcomes: active, inactive

MOLECULE | LABEL
CN(C)c1ccc(C(CNC(=O)Cc2cccc3ccccc23)N(C)C)cc1 (stereo not given) | inactive
CCOC(=O)C(CCCCCOc1ccc([N+](=O)[O-])cc1)C(=O)OCC | inactive
CN(CCc1ccccn1)C(=O)CC1C(=O)NCCN1Cc1ccc(-c2ccccc2)cc1 (stereo not given) | active
CC12CCCCN1CCCc1c2[nH]c2ccccc12 (stereo not given) | active
C=C(c1ccc(O)cc1)c1ccc(O)cc1 | inactive

Just curious, what result did `Cc1cc(C(=O)CN2C(=O)C(=O)N(CC(C)C)C2=O)c(C)n1-c1ccccc1F` get here?
inactive

Just curious, what result did `Cc1ccc(C(=O)OCCN2CCN(c3ncc(C(F)(F)F)cc3Cl)CC2)cc1` get here?
inactive

Just curious, what result did Fc1ccccc1CNCCC(Cc1ccccc1)c1ccc2c(c1)OCO2 (stereo not given) get here?
inactive

====

assay: serotonin-gated TRPC4 signal block – cell-based, second counter screen, HEK293 TRPC4/5HT1a, Fluo-4, counter-screen for TRPC4 inhibitor project, confirmation (AID 434978); settings: Fluo-4 calcium flux, at 10 µM, serotonin added to trigger calcium flux;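 also: serotonin given first at submaximal then at maximal dose after compound preincubation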
Activity calls are given as the source filed them.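 How the source made its calls: active means primary screen active whose calcium signal fell more than 3 SD beyond the full-serotonin control mean in both duplicate plates; inactive means the rest.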
Please reply with one of these outcomes: active, inactive

Below, 4 molecules whose answers are already recorded.
MOLECULE | LABEL
CCOC(=O)C1(CCOC)CCN(Cc2ccccc2-c2ccco2)CC1 | inactive
COc1cc(OC)cc(C(=O)NC(=S)NNC(=O)Cc2cccs2)c1 | inactive
CCOC(=O)C1=NNC(C(=O)c2ccc(Cl)cc2)C1c1ccc(OC)cc1 (configuration not stated) | inactive
CC(C)n1cnc2c(N(C)c3ccccc3)nc(N(CCN(C)C)Cc3ccccc3)nc21 | inactive

Just curious, what result did CCC1CCCCN1S(=O)(=O)c1ccc(C(=O)N(CCCN(C)C)c2nc3cc4c(cc3s2)OCO4)cc1 (configuration not stated) get here?
inactive

Just curious, what result did N=c1n(Cc2ccccc2)c2ccccc2n1CC(O)COc1ccccc1 (configuration not stated) get here?
inactive

====

assay: parental HEK293 depolarization signal interference – cell-based, second counter screen, counter-screen for TRPC6 inhibitor project, confirmation (AID 2779); settings: parental HEK293 membrane potential dye fluorescence; at 10 µM; maximal acetylcholine challenge after compound addition
The other results are listed elsewhere or left out. Active and inactive are the calls of the source.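 How the source made its calls: active means membrane potential signal moving either way by over 3 SD of the maximum-effect control, in both duplicate plates, meaning non-specific; inactive means the rest.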
EXPERIMENTAL_ENDPOINT: outcome

Solved entries (count: 4):
COMPOUND | outcome
CCCCOc1ccc(CSC(=N)N)cc1[N+](=O)[O-] | inactive
Cc1cc2oc3ccc(NCCC4CCCN4C)cc3c(=O)c2cc1C (stereo not given) | inactive
O=C(NC(Nc1nc2ccc([N+](=O)[O-])cc2s1)(C(F)(F)F)C(F)(F)F)c1ccccc1 | inactive
Cc1ccc2nc(C)c3c(c2c1)N(c1ccccc1)CC3 | inactive

Now turn to the next compound.
Report outcome for CC(Nc1nc(N2CCCC2)nc2ccccc12)c1ccccc1 (stereo not given) please.
inactive

====

assay: nonspecific potentiation of DAMGO calcium response – cell-based, HEK293 mu-opioid receptor line, counter-screen for TRPC4 allosteric potentiator project, confirmation (AID 449724); details: HEK293 mu-opioid receptor cells, Fluo-4 calcium flux, at 10 µM, compound added before EC20 DAMGO stimulus;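 also: HEK293 cells carrying mu-opioid receptor only with no TRPC4 channel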
Calls of active or inactive are those of the source.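 Rule for the calls: active = calcium signal rise more than 3 SD above the low-dose agonist control mean, in both duplicate plates and the primary screen; inactive = the rest.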
Please reply with one of these outcomes: Y = active, N = inactive

Just curious, what result did `CCOc1ccccc1CN1CCC(n2nccc2NC(=O)CCc2ccccc2)CC1` get here?
N

Just curious, what result did `CCOC(=O)CSc1nc2c(sc(=S)n2-c2ccccc2OC)c(=O)n1-c1ccccc1OC` get here?
N

Just curious, what result did `CN(CCCNC(=O)CCCOc1cc(=O)n(C)c2ccccc12)Cc1ccccc1` get here?
N

Just curious, what result did `Cc1ccc(C)c(S(=O)(=O)/N=C2\C=C(NS(=O)(=O)c3ccccc3)C(=O)c3ccccc32)c1` get here?
N

Just curious, what result did `CN(C)CCCN(C(=O)c1ccc(Cl)s1)c1nc2cc3c(cc2s1)OCO3` get here?
N

Just curious, what result did COC(=O)C1=C(C)NC2=C(C(=O)c3ccccc32)C1c1ccc(-c2ccc(C(=O)O)cc2)o1 (stereo unspecified) get here?
Y

Just curious, what result did CN(C)c1ccc(NC(=O)CN2C3CCCC2CC(NC(=O)c2ccccc2)C3)cc1 (stereo unspecified) get here?
N

Just curious, what result did `O=C(c1ccccc1)c1coc2ccc(O)c(CN3CCOCC3)c12` get here?
N

Just curious, what result did `CCCNCc1cc(Br)ccc1OCC(=O)NCCc1ccccc1` get here?
N

Just curious, what result did `CCCCCN1C2=NCCN2c2ccccc21` get here?
N

Just curious, what result did `OCCNc1nc(Nc2ccccc2)nc2ccccc12` get here?
N

Just curious, what result did CCOc1ccccc1N(C(=O)c1snc(C(N)=O)c1N)C(C(=O)NCc1ccccc1)c1ccc(O)cc1 (stereo unspecified) get here?
N

Just curious, what result did `Cc1ccc(-n2c(C)cc(C)c(C#N)c2=O)cc1Cl` get here?
N

Just curious, what result did `CCCn1ncc(CN2CCC(n3nccc3NC(=O)CCc3ccccc3)CC2)c1C` get here?
N

Just curious, what result did COc1ccc(C(CNCC(O)COc2c(C)ccc(C)c2C)N(C)C)cc1 (stereo unspecified) get here?
N

Just curious, what result did `Cc1oc2c(c1C(=O)c1ccccc1)C(=O)C(=O)c1ccccc1-2` get here?
N

These entries and their values trace back to PubChem BioAssay.
